Please find below IC50 measurements for SIK3 (Homo sapiens), combined from several publications.

Field: example entries. Status: answers known.
[[record]]
compound = "COc1cc(-c2c3c(C#N)cc(-c4cnn(C[C@H](C)O)c4)cc3nn2C)cc(OC(F)F)c1C(=O)NC[C@@H]1CC1(F)F (single isomer, unassigned)"
obs_value = "5.7 nM"

[[record]]
compound = "COc1c(F)cccc1-c1c[nH]c2ncc(-c3cccc(S(=O)(=O)N4CCCC4)c3)cc12"
obs_value = "> 100 nM"

[[record]]
compound = "COc1cc(-c2cnc3cc(OCc4nnc(C5CC5)o4)ccn23)cc(OC(F)F)c1C(=O)NC1CC1"
obs_value = "0.01 to 10 nM"

[[record]]
compound = "CNc1cc(-c2cnc3cc(OCCN(C)C)ccn23)cc(OC(F)F)c1C(=O)NCC(F)(F)F"
obs_value = "0.01 to 10 nM"

[[record]]
compound = "COc1cc(-c2cnc3cc(OCCN4C(C)CCCC4C)ccn23)cc(OC(F)F)c1C(=O)NC1CC1 (stereo not drawn)"
obs_value = "0.01 to 10 nM"

[[record]]
compound = "COc1cc(-c2cnc3cc(OCC4(N)CCCCC4)ccn23)cc(OC(F)F)c1C(=O)NC1CC1"
obs_value = "0.01 to 10 nM"


Problem: Quick one: IC50 of COc1cc(-c2c3c(C#N)cc(-c4cnn(C)c4)cc3nn2C)cc(OC(F)F)c1C(=O)N1CC(N)(C(F)(F)F)C1 ?
Solution: 10.2 nM

Problem: Quick one: IC50 of COc1cc(-c2cnc3cc(OCCCOC(C)=O)ccn23)cc(OC(F)F)c1C(=O)NC1CC1 ?
Solution: 0.01 to 10 nM
